# MEASUREMENT_NOTES: Primary qHTS to identify inhibitors of SARS-CoV-2 cell entry (AID 1645846); further: nearly all actives have a fitted effect of over 45% in size
# CONDITION: SARS-CoV-2 pseudovirus cell entry assay, luminescence; at 57.1 µM (top of the series) unless noted
Inconclusive results are not listed. Calls of active or inactive are those of the source. The call rests on the fitted dose curve.
ENDPOINT: outcome

CN(C)CCNC(=O)COc1c2cccc1Cc1cccc(c1OCC(=O)NCCN(C)C)Cc1cccc(c1OCC(=O)NCCN(C)C)Cc1cccc(c1OCC(=O)NCCN(C)C)C2	inactive [at 11.3 µM]
CC1CCC(n2c3cnccc3c3cnc(Nc4ccc5c(n4)CCN(C(=O)CO)C5)nc32)CC1 (stereo not drawn)	inactive [at 11.3 µM]
C[C@@H]1C[C@H]2[C@@H]3CCC4=CC(=O)C=C[C@]4(C)[C@@]3(F)[C@@H](O)C[C@]2(C)[C@@]1(O)C(=O)COP(=O)(O)O	inactive [at 11.3 µM]
